What composite z-score was measured for each of the following?
- Study System: Follistatin-related protein 3 (Homo sapiens)
- Assay Summary: compounds binding follistatin-related protein 3 – biochemical, small-molecule microarray, 635 nm fluorescence, primary screen (AID 1105);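 note: score merges emission near 667 nm and signal to noise per printed spot across three slides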
- Condition Info: FSTL3 binding, higher = more signal
Respond with the number and no other words.

Form field composite z-score for item COCCOC(=O)N1C(=O)[C@@]2(c3ccccc31)[C@H](c1ccccc1OCCO)N1[C@H](c3ccccc3)[C@H](c3ccccc3)OC(=O)[C@H]1[C@@H]2C(=O)N1CCc2cc(OC)c(OC)cc2C1 on Follistatin-related protein 3 (Homo sapiens): 0.788

Form field composite z-score for item O=C1C2C=CC(C(O)c3ccc(Br)cc3)N(Nc3ccccc3)C2C(=O)N1c1ccccc1 (stereo not drawn) on Follistatin-related protein 3 (Homo sapiens): 0.429

Form field composite z-score for item COCCOC(=O)N1C(=O)[C@@]2(c3cc(C#CCNC(N)=O)ccc31)[C@H](c1ccc(OCCO)cc1)N1[C@H](c3ccccc3)[C@H](c3ccccc3)OC(=O)[C@H]1[C@@H]2C(=O)N1CCN(c2ncccn2)CC1 on Follistatin-related protein 3 (Homo sapiens): 1.3
